Target: recombinant human LRRK2 (catalytic domain only [amino acids 970-2527], GST-tagged) (Homo sapiens (Human), UniProt Q5S007)
Sequence (Q5S007 970-2527): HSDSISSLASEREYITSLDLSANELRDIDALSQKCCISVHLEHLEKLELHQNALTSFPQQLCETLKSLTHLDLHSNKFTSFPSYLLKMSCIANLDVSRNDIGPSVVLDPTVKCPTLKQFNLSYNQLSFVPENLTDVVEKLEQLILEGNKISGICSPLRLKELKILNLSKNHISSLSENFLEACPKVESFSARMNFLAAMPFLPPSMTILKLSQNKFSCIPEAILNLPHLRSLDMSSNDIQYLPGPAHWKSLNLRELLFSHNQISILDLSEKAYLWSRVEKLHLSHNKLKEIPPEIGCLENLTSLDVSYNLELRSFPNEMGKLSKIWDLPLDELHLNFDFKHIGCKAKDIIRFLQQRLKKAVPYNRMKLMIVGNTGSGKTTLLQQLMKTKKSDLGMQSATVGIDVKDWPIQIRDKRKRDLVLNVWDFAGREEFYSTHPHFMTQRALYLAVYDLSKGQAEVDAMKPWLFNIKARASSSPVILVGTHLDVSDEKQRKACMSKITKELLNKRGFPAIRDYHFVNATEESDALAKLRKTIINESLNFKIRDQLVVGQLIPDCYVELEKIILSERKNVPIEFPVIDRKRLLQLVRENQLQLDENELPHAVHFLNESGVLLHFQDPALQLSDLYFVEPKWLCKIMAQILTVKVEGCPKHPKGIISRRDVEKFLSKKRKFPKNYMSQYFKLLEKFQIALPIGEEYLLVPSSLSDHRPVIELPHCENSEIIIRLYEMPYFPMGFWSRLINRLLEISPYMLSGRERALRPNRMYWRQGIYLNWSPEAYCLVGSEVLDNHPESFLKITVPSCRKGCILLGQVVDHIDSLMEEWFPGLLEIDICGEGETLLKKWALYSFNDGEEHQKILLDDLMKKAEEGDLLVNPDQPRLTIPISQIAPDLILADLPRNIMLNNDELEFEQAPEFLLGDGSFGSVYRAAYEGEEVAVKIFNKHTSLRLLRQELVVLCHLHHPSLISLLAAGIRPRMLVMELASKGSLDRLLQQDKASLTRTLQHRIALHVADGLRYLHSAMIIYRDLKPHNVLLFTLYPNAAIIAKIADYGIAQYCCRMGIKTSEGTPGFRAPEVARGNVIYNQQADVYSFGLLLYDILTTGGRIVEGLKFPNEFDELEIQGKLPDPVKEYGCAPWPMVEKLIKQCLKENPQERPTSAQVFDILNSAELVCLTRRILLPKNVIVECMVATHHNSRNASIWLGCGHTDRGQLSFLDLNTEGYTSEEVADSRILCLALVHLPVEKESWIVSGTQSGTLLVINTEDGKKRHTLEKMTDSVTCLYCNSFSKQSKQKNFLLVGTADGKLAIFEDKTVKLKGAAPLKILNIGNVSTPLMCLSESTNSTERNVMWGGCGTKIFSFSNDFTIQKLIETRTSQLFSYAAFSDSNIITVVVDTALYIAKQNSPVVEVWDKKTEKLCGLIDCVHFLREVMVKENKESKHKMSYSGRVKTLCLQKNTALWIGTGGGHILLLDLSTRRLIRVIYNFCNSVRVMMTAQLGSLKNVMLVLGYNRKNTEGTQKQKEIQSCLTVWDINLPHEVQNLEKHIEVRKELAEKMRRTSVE
Test: LRRK2 Enzymatic Assay
Conditions: LRRKtide substrate, [32P]-ATP
pIC50: −log10 of the molar value.
Give pIC50 for every item shown.

Returns the measured pIC50 for the input molecule. Input: Clc1cnc(Nc2ccc(N3CCOCC3)cc2)nc1OCC1CCOCC1 [Example 148]
> 7.30

Next molecule: CC(=O)N[C@H]1CC[C@H](COc2nc(Nc3cnn(CC(F)(F)F)c3)ncc2F)CC1 [Example 188]
> 7.30

Now try CC(=O)N1CCC(COc2nc(Nc3cn(C(C)(C)C#N)nc3C)ncc2F)C(F)C1 (single isomer, unassigned) [Example 177] .
< 6.40

Now consider CCN1CCN(c2ccc(Nc3ncc(Cl)c(OCC4CCC(O)CC4)n3)nc2)CC1 (stereo not shown) [Example 132] and answer again.
6.70 to 7.30

Then what about the molecule OCCn1cc(Nc2ncc(F)c(OC[C@H]3CC[C@H](O)CC3)n2)cn1 [Example 225] ?
> 7.30

# repeat for Cc1nn(C(C)(C)C#N)cc1Nc1nccc(OCC2(F)CCN(C)CC2)n1 [Example 60]
< 6.40

Thanks! And O=C(N[C@H]1CC[C@H](COc2nc(Nc3ccc(N4CCOCC4)cc3)ncc2F)CC1)C(F)(F)F [Example 99] ?
> 7.30

Also, Cc1nn(C2CC(C#N)C2)cc1Nc1ncc(Cl)c(OCC2(F)CCNCC2)n1 (stereo not shown) [Example 21] please.
> 7.30

Again, but for FC1(F)CCC(COc2nc(Nc3ccc(N4CCOCC4)cc3)ncc2Cl)CC1 [Example 153]
6.70 to 7.30

// query: CC(=O)N[C@H]1CC[C@H](COc2nc(Nc3cnn(C4CCOCC4)c3)ncc2F)CC1 [Example 193]
> 7.30

Now consider C[C@@H]1CN(c2ccc(Nc3ncc(F)c(OCC4CCC(O)(C(F)(F)F)CC4)n3)cc2)C[C@H](C)O1 (stereo partly shown) [Example 261] .
6.70 to 7.30

Ok, now CC(=O)N1CCC(COc2nc(Nc3ccc(N4CCOCC4)cc3)ncc2Cl)C(F)(F)C1 (stereo not shown) [Example 95]
> 7.30

And for COc1nn(C(C)C)cc1Nc1ncc(F)c(OC[C@H]2CC[C@H](NC(C)=O)CC2)n1 [Example 207] ?
6.70 to 7.30

Similarly, FC(F)CN[C@H]1CC[C@H](COc2nc(Nc3cccc(N4CCOCC4)c3)ncc2Cl)CC1 [Example 107] ?
> 7.30

Repeat with O[C@H]1CC[C@H](COc2nc(Nc3cn(C4CC4)nc3Cl)ncc2F)CC1 [Example 239]
6.40 to 6.70

Same lookup for CC(=O)NC1CCC(C)(COc2ccnc(Nc3ccc(N4C[C@@H](C)O[C@@H](C)C4)cc3)n2)CC1 (stereo partly shown) [Example 90] , please.
< 6.40

###

I'd be grateful if you could share measured IC50 for these entries.
Molecular target: recombinant human LRRK2 (catalytic domain only [amino acids 970-2527], GST-tagged) (Homo sapiens (Human), UniProt Q5S007)
Assay: LRRK2 Enzymatic Assay
Details: LRRKtide substrate, [32P]-ATP

Sample CC(=O)NC1CCCC(COc2nc(Nc3ccc(N4CCOCC4)cc3)ncc2F)CC1 (centres unmarked) — what was its IC50?
< 50 nM

Then this compound: Cc1nn(C)cc1Nc1ncc(F)c(OC[C@H]2CC[C@H](O)CC2)n1
50 to 200 nM

Same for CN[C@H]1CC[C@H](COc2ccnc(Nc3cc(F)c(C(=O)N4CCOCC4)cc3OC)n2)CC1
50 to 200 nM

Next entry: Cc1nn(C(C)(C)C#N)cc1Nc1ncc(Cl)c(OCC2CC(C)OC(C)C2)n1 (centres unmarked)
< 50 nM

Now this one: Cc1nn(C(C)(C)C#N)cc1Nc1ncc(F)c(OC[C@H]2CC[C@H](OC(F)F)CC2)n1
50 to 200 nM

# iterate: CN[C@H]1CC[C@H](COc2nc(Nc3cn(C(C)(C)C#N)nc3C)ncc2OC)CC1
< 50 nM

What do you have for CCN1CCN(Cc2ccc(Nc3ncc(Cl)c(OCC4CCC(O)CC4)n3)nc2)CC1 (centres unmarked) ?
> 400 nM

Now this one: O[C@H]1CC[C@H](COc2nc(Nc3cnn(C4CC4)c3)ncc2F)CC1
50 to 200 nM
